Values from PubChem BioAssay (NCATS)

Assay: P-glycoprotein substrates identified in KB-8-5-11 adenocarcinoma cell line, qHTS therapeutic library screen (AID 1346987); also: nearly all actives have a fitted effect of over 65% in size
Conditions: KB-8-5-11 (P-gp overexpressing) viability, CellTiter-Glo, 72 h; series mostly up to 44.5 µM
Procedure: The ATP-binding cassette transporters P-glycoprotein (P-gp) is known to limit brain penetration of many chemotherapy drugs. […] All cell lines were plated into 1536-well plates at 500 cells/well in 5 uL media. […] CellTiter-Glo reagent (Promega) was dispensed into the wells, incubated for 5 min and luminescence was read on a ViewLux instrument (Perkin-Elmer). […]
Results filed as inconclusive are left out. Activity calls are given as the source filed them. Calls follow the shape of the dose curve; as a rule, active = well fitted inhibition curve with a large enough effect; inconclusive = small, poorly fitted or top-dose-only effect; inactive = flat fitted curve, though single readings scatter.
Log the outcome using a class from active, inactive

## Input Field: outcome | Entry: "CN(C)CCOC(c1ccccc1)c1ccccc1"
## Output inactive

## Input Field: outcome | Entry: "Clc1ccccc1C(c1ccccc1)(c1ccccc1)n1ccnc1"
## Output active

## Input Field: outcome | Entry: CCc1cccc2c3c([nH]c12)C(CC)(CC(=O)O)OCC3 (stereo unspecified)
## Output inactive

## Input Field: outcome | Entry: "CCOC(=O)Nc1ccc(NCc2ccc(F)cc2)nc1N"
## Output inactive

## Input Field: outcome | Entry: "O=C1c2c(O)ccc(O)c2C(=O)c2c(NCCNCCO)ccc(NCCNCCO)c21"
## Output active

## Input Field: outcome | Entry: O=C(C1CCCCC1)N1CC(=O)N2CCc3ccccc3C2C1 (stereo unspecified)
## Output inactive

## Input Field: outcome | Entry: "CN(C)C(=O)C(CCN1CCC(O)(c2ccc(Cl)cc2)CC1)(c1ccccc1)c1ccccc1"
## Output active

## Input Field: outcome | Entry: CC1COc2c(N3CCN(C)CC3)c(F)cc3c(=O)c(C(=O)O)cn1c23 (stereo unspecified)
## Output inactive

## Input Field: outcome | Entry: "Cc1ccc(C(=O)Nc2ccc(S(=O)(=O)O)c3cc(S(=O)(=O)O)cc(S(=O)(=O)O)c23)cc1NC(=O)c1cccc(NC(=O)Nc2cccc(C(=O)Nc3cc(C(=O)Nc4ccc(S(=O)(=O)O)c5cc(S(=O)(=O)O)cc(S(=O)(=O)O)c45)ccc3C)c2)c1"
## Output inactive

## Input Field: outcome | Entry: CC(C)NCC(O)c1ccc(O)c(O)c1 (stereo unspecified)
## Output inactive

## Input Field: outcome | Entry: "Cc1cn([C@H]2C[C@H](N=[N+]=[N-])[C@@H](CO)O2)c(=O)[nH]c1=O"
## Output inactive

## Input Field: outcome | Entry: Cc1ccccc1N1C(=O)c2cc(S(N)(=O)=O)c(Cl)cc2NC1C (stereo unspecified)
## Output inactive

## Input Field: outcome | Entry: "CC(C)(C)C(=O)Oc1ccc(S(=O)(=O)Nc2ccccc2C(=O)NCC(=O)O)cc1"
## Output inactive

## Input Field: outcome | Entry: CC(C)(Oc1ccc(C2CC2(Cl)Cl)cc1)C(=O)O (stereo unspecified)
## Output inactive

## Input Field: outcome | Entry: COc1ccccc1OCC(O)CN1CCN(CC(=O)Nc2c(C)cccc2C)CC1 (stereo unspecified)
## Output inactive

## Input Field: outcome | Entry: "O=C(CCCN1CCC(O)(c2ccc(Cl)cc2)CC1)c1ccc(F)cc1"
## Output active

## Input Field: outcome | Entry: "CC(=O)OCC(CCn1cnc2cnc(N)nc21)COC(C)=O"
## Output inactive

## Input Field: outcome | Entry: COc1ccccc1OCCNCC(O)COc1cccc2[nH]c3ccccc3c12 (stereo unspecified)
## Output inactive

## Input Field: outcome | Entry: CC1(CN2CCC(n3c(=O)[nH]c4ccccc43)CC2)OCc2ccccc2-n2cccc21 (stereo unspecified)
## Output inactive

## Input Field: outcome | Entry: "CN1CCN(CCCN2c3ccccc3Sc3ccc(Cl)cc32)CC1"
## Output active

## Input Field: outcome | Entry: "CCC1(c2ccccc2)C(=O)NCNC1=O"
## Output inactive

## Input Field: outcome | Entry: "COc1ccc2[nH]cc(CCNC(C)=O)c2c1"
## Output inactive

## Input Field: outcome | Entry: "C[C@H]1c2cccc(O)c2C(O)=C2C(=O)[C@]3(O)C(O)=C(C(N)=O)C(=O)[C@@H](N(C)C)[C@@H]3[C@@H](O)[C@@H]21"
## Output inactive

## Input Field: outcome | Entry: COc1cc2nc(N(C)CCCNC(=O)C3CCCO3)nc(N)c2cc1OC (stereo unspecified)
## Output inactive

## Input Field: outcome | Entry: "Cc1cnc(C(=O)NCCc2ccc(S(=O)(=O)NC(=O)NC3CCCCC3)cc2)cn1"
## Output inactive

## Input Field: outcome | Entry: "CN(C)CCC=C1c2ccccc2C=Cc2ccccc21"
## Output inactive

## Input Field: outcome | Entry: CC(C(=O)O)c1cccc(C(=O)c2ccccc2)c1 (stereo unspecified)
## Output inactive

## Input Field: outcome | Entry: "C[C@](N)(Cc1ccc(O)c(O)c1)C(=O)O"
## Output inactive

## Input Field: outcome | Entry: "NCCc1cnc[nH]1"
## Output inactive

## Input Field: outcome | Entry: "CNCCCC12CCC(c3ccccc31)c1ccccc12"
## Output active

## Input Field: outcome | Entry: "Cc1cc(C(C)(C)C)c(O)c(C)c1CC1=NCCN1"
## Output inactive
